Provenance of the data: the supplement of paper PMC7556523

- System: Sporothrix brasiliensis CBS 133006
- EXPERIMENT_NOTES: growth inhibition relative to untreated control; higher = more growth inhibition (more antifungal activity), active = 80 or more; extreme values may be limits of the assay
- CONDITIONS_USED: 1 µM; 48 h
MEASUREMENT_NAME: growth inhibition (%)
Give bare numbers, in %.

Cn1ncc2c(N3CCOCC3)nc(NCCc3c[nH]c4ccccc34)nc21; 8.25
Cc1ccc(-c2nc(CN(Cc3ccccn3)C(C)C)cs2)o1; 24

Next:
Exercise: Would you kindly share the measured growth inhibition for Cc1ccc(S(=O)(=O)n2cc(-c3ccnc(N)c3)c3cc(Br)cnc32)cc1 ?
Key: 0
